# experiment-summary: n-Octanol-water partition co-efficient, log P of the compound at 1 mg/ml by HPLC analysis
# Type: physicochemical
Please respond with reported logP for every item in the list.
Write the value as a bare number.

Input line: Provide measured logP value, entry: `COc1ccc2c(c1)NC(=O)CN2c1nc(COC(C)=O)nc2ccccc12`
Output line: 2.7

Input line: Provide measured logP value, entry: `COc1ccc2c(c1)NC(=O)CN2c1nc(NC2CCCC2)nc2ccccc12`
Output line: 2.33

Input line: Provide measured logP value, entry: `CCCCNc1nc(N2CC(=O)Nc3cc(OC)ccc32)c2ccccc2n1`
Output line: 3.91

Input line: Provide measured logP value, entry: `COc1ccc2c(c1)NC(=O)CN2c1nc(NC2CC2)nc2ccccc12`
Output line: 2.26

Input line: Provide measured logP value, entry: `COc1ccc2c(c1)NC(=O)CN2c1nc(N2CC(F)(F)C2)nc2ccccc12`
Output line: 2.14

Input line: Provide measured logP value, entry: `COc1ccc2c(c1)NC(=O)CN2c1nc(N2CCC(F)(F)C2)nc2ccccc12`
Output line: 2.48

Input line: Provide measured logP value, entry: `COc1ccc2c(c1)NC(=O)CN2c1nc(CO)nc2ccccc12`
Output line: 2.14

Input line: Provide measured logP value, entry: `COc1ccc2c(c1)NC(=O)CN2c1nc(NCCCO)nc2ccccc12`
Output line: 2.6

Input line: Provide measured logP value, entry: `CNc1nc(N2CC(=O)Nc3cc(OC)ccc32)c2ccccc2n1`
Output line: 2.77

Input line: Provide measured logP value, entry: `CCNc1nc(N2CC(=O)Nc3cc(OC)ccc32)c2ccccc2n1`
Output line: 2.56

Input line: Provide measured logP value, entry: `COc1ccc2c(c1)NC(=O)CN2c1nc(Cl)nc2ccccc12`
Output line: 2.94

The reported numbers originate from ChEMBL document CHEMBL4028849.
